- assay_remarks: Apparent permeability across apical to basolateral side in human Caco-2 cells
The threshold is inclusive: Papp A→B of exactly 1 ×10⁻⁶ cm/s counts as MET; values below receive NOT MET.

item_smiles	group
Cc1cncc(-n2c(=O)[nH]/c(=N\c3cc4cn(C)nc4cc3Cl)n(Cc3cc(Cl)c(F)cc3Oc3ccc(C#N)c(F)c3)c2=O)c1	NOT MET

Query: Decide: Papp A→B of Cc1ccc(C#N)cc1Cn1c(=O)n(-c2cncc(SC3CC3)c2)c(=O)[nH]/c1=N\c1cc2cn(C)nc2cc1Cl >= 1 ×10⁻⁶ cm/s?
Result: MET

Query: Item: COCCOc1cncc(-n2c(=O)[nH]/c(=N\c3cc4cn(C)nc4cc3Cl)n(Cc3cc(Cl)c(F)cc3F)c2=O)c1
Result: MET

Query: And the next one, Cc1cncc(-n2c(=O)[nH]/c(=N\c3cc4cn(C)nc4cc3Cl)n(Cc3cc(Cl)c(F)cc3Sc3cccc(F)c3)c2=O)c1 ?
Result: MET

Query: // next record COCCOc1cncc(-n2c(=O)[nH]/c(=N\c3cc4cn(C)nc4cc3Cl)n(Cc3cc(C#N)ccc3C)c2=O)c1
Result: MET

Query: Next compound up: COc1cncc(-n2c(=O)[nH]/c(=N\c3cc4cn(C)nc4cc3Cl)n(Cc3cc(Cl)c(F)cc3Oc3ccc(F)cc3)c2=O)c1
Result: NOT MET

Query: Try this compound next: Cn1cc2cc(/N=c3\[nH]c(=O)n(-c4cncc(O[C@H]5CCOC5)c4)c(=O)n3Cc3cc(Cl)c(F)cc3F)c(Cl)cc2n1
Result: MET
